Hey, just so you know, these numbers are from patent US20250206820A1.

- assayed_system: ILT3 on target cells (MOLM13, OCI-AML-2, NALM-1, THP-1, MM1S, H929, U226B1 and other lines) (human) (UniProt Q8NHJ6)
- Sequence (Q8NHJ6 22-448, one chain of several): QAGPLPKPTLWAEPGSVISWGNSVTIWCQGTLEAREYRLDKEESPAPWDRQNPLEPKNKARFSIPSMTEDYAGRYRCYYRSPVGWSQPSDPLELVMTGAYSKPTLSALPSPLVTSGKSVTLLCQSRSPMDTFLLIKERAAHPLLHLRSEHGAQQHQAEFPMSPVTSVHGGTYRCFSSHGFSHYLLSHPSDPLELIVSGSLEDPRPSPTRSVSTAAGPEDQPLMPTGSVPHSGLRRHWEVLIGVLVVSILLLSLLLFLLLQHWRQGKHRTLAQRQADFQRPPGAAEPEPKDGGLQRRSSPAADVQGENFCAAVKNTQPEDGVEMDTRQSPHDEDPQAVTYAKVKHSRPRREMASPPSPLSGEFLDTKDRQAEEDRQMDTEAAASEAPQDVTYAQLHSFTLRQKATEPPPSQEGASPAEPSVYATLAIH
- measurement_description: cell-based or functional assay
readout: TNF-α, EC50 (nM), cytokine release in the TDCC co-culture
Give bare numbers, in nM.

Hello, please tell me recorded TNF-α, EC50 (nM), cytokine release in the TDCC co-culture for this one: 12A12 Fab coupled with CD3 scFv 2B2 (bispecific antibody, part only; not given: CD3 scFv 2B2, V domains shown, part only) VH: EVQLQQSGPELVKPGASVKISCKASGYTFTDYNMDWVKQSHGKSLEWIGYIYPNNGGTGYNQKFNSKATLTVDKSSSTAYMELHSLTSEDSAVYYCASSPYYDYVGSYAMDYWGQGTSVTVSS VL: QIVLTQSPAIMSASLGERVTMTCTASSSVSSSYLHWYQQKPGSSPKLWIYSTSNLASGVPARFSGSGSGTSYSLTISSMEAEDAATYYCHQYHRSPRTFGGGTKLEIK 2510
